Known amyloid nucleation score of a selection of substances
# Test description: amyloid nucleation score (Sup35N fusion, yeast selection) (log enrichment); library NNK1; higher = more nucleation; inactive = no reads after selection;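 note: zero at mode of non-aggregating sequences after 7 days selection at 30°C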

Substance: FATFRMSCPAKTVSVAVIGG
amyloid nucleation score: -0.069
--
Substance: LYACNFFVFISRPAGMDSAS
amyloid nucleation score: 5.29
--
Substance: YSVVRCRVANC
amyloid nucleation score: 0.263
--
Substance: ACGRLFDYVAFHRLLDQTHW
amyloid nucleation score: -0.617
--
Substance: YTRSVL
amyloid nucleation score: 0.2
--
Substance: MRITILYYLGKQNRSFWWFC
amyloid nucleation score: 0.108
--
Substance: QFVSLKFRVGLATS
amyloid nucleation score: 0.045

###

# Test description: amyloid nucleation score (Sup35N fusion, yeast selection) (log enrichment); library NNK3; higher = more nucleation; inactive = no reads after selection

Substance: CAIRDS
amyloid nucleation score: -0.647

Substance: RCSYLMRLYISSFMY
amyloid nucleation score: inactive

Substance: RECSNSVVLFLDVTHRVVRT
amyloid nucleation score: inactive

Substance: TANLGRCYCKLSNFTSGWFL
amyloid nucleation score: inactive

Substance: GNGSMVVYKSARVNLLSGIT
amyloid nucleation score: inactive

Substance: FMRDIKLTGGCGVNCAHLHA
amyloid nucleation score: inactive

Substance: WNRTEDMR
amyloid nucleation score: inactive

Substance: REVELSNVYYNDVSACLHKK
amyloid nucleation score: -0.378

Substance: PSTDSINDV
amyloid nucleation score: inactive

Substance: AYKMTFWVQNYVFVYSFLFV
amyloid nucleation score: 0.419

Substance: IICIYKIPKFTTRKLILRVY
amyloid nucleation score: inactive

Substance: HRKIRFGYSL
amyloid nucleation score: inactive

Substance: FIHMCISFSGYFYDYCFNFN
amyloid nucleation score: inactive

Substance: DTSTSMFRRVMEATVSTSLL
amyloid nucleation score: inactive

Substance: TIVTIVAFFNMERYGHFRGD
amyloid nucleation score: 0.903

Substance: PRWLPVDGYEDSGVVEDKES
amyloid nucleation score: inactive

Substance: SYKMNVMT
amyloid nucleation score: inactive

Substance: VYGASTLSAHMWR
amyloid nucleation score: inactive

Substance: YSCAKRTRVGTRSSRKVSLA
amyloid nucleation score: inactive

Substance: EWGTWSTY
amyloid nucleation score: inactive

Substance: IDLTTDSLDM
amyloid nucleation score: inactive

Substance: LCSIVWRGIRDAYGQRYYVV
amyloid nucleation score: inactive

Substance: SLNNCGLLWYPSTTPPESLG
amyloid nucleation score: inactive

Substance: AKARMNGEDGARLTSMHSLY
amyloid nucleation score: inactive

Substance: DFLYRGMNGSGFPLCIYQRC
amyloid nucleation score: inactive

Substance: NLINTVKYLNFDGLTAFSSQ
amyloid nucleation score: inactive

Substance: MTSFVWSCWRHYYRSRIVVV
amyloid nucleation score: inactive

Substance: IKSCGVNNIAFLQVCHRWCS
amyloid nucleation score: 1.6

Substance: WMVNVTGWISHGRFGYNFLI
amyloid nucleation score: inactive

Substance: HNSRFPSF
amyloid nucleation score: 0.338

Substance: DSCTDEENM
amyloid nucleation score: inactive

Substance: SDVIGLLFGEYNISVVLRGR
amyloid nucleation score: inactive

Substance: NFVDVRIKFTLTADLGHNSG
amyloid nucleation score: 0.756

Substance: LRRRVKSFSELYLAVTRVML
amyloid nucleation score: 0.286

Substance: SRMTIIWVTVRISRNGTWNF
amyloid nucleation score: inactive

Substance: QGGGVCPCPKMVSFQMMYVI
amyloid nucleation score: inactive

Substance: SASLLN
amyloid nucleation score: inactive

Substance: VSYSNDKGIWIYGTSLYPGA
amyloid nucleation score: inactive

Substance: FQFWGAGGDI
amyloid nucleation score: inactive

Substance: SCKELLPFWARELLRFNRYC
amyloid nucleation score: inactive

Substance: LPIKMGMLLSICDLLG
amyloid nucleation score: inactive

Substance: NSTDRGLEFRTDHYHT
amyloid nucleation score: inactive

Substance: NRIFSVCECMVYGICECVCR
amyloid nucleation score: inactive

Substance: YIGVYYLN
amyloid nucleation score: 0.431

Substance: MNFGYNNSFAIYSVFYSYRC
amyloid nucleation score: 2.69

Substance: DFLLATDQVGYKDLDLGTKV
amyloid nucleation score: inactive

Substance: PLEWNNGVYISGWLWVLVSW
amyloid nucleation score: -0.518

Substance: GTYCFINLTTRTGDRKGRHA
amyloid nucleation score: 1.05

Substance: LARPHDNSGCCSSNCDLRSC
amyloid nucleation score: inactive

Substance: LTFTAVNWAVPVGRGT
amyloid nucleation score: inactive

Substance: WRRLRATISNGAWD
amyloid nucleation score: inactive

Substance: RFSNAMLMCLVTNVSC
amyloid nucleation score: 0.451

Substance: DFYLDLITLDNRTTSSTSML
amyloid nucleation score: inactive

Substance: ASRKVTRVVMHINLRLWYET
amyloid nucleation score: inactive

Substance: YMGEVCCIVVVTDHLCTVVI
amyloid nucleation score: inactive

Substance: WAVIKLMRSERTVGVWGSNT
amyloid nucleation score: inactive

Substance: MRKLDPFNSKP
amyloid nucleation score: inactive

Substance: DRVCSSRML
amyloid nucleation score: inactive

Substance: FYSMSLVSFCFYGDLYLDNG
amyloid nucleation score: 2.76

Substance: DRKLLYY
amyloid nucleation score: inactive

Substance: WHCVSFKLNDL
amyloid nucleation score: inactive

Substance: LKSGVFFG
amyloid nucleation score: inactive

Substance: RSHLWGRLASYAMGTHAG
amyloid nucleation score: inactive

Substance: LRAKTRHSVLNCDRIVEPGG
amyloid nucleation score: 1.49

Substance: YCDSCLNDFLVWYF
amyloid nucleation score: inactive

Substance: YLLSIEYVNLAIVDNSWRMF
amyloid nucleation score: 1.04

Substance: CILYRFPPATKSHRITGIYK
amyloid nucleation score: inactive

Substance: GKVYLYLCLGMMFGL
amyloid nucleation score: inactive

Substance: TNNCCNLLCMIQNPESCSFA
amyloid nucleation score: 3.12

Substance: GYMDAGIDWF
amyloid nucleation score: inactive

Substance: WFEEATRGRNETS
amyloid nucleation score: inactive

Substance: CIMRMTFTMITYCNSLSLGS
amyloid nucleation score: inactive

Substance: FSIPPFTRTCLKNGLHYSVR
amyloid nucleation score: -0.759

###

# Test description: amyloid nucleation score (Sup35N fusion, yeast selection) (log enrichment); library NNK3; higher = more nucleation; inactive = no reads after selection
Parameter measured: amyloid nucleation score

Substance: AWMCIHLYICCMILCGRRGW
Experimental result: inactive
--
Substance: LFLLNVAYCNCFT
Experimental result: 3.27
--
Substance: KYTVEVNFLAFLRHIYCTSG
Experimental result: inactive
--
Substance: GNWWCNCTQYNLGMMDSALG
Experimental result: 1.98
--
Substance: CVSRICVWPRYETTGFYAST
Experimental result: inactive
--
Substance: LMIISGCSHMSHSVRSTRGL
Experimental result: -0.217
--
Substance: NDFLDVGSVSSYVNTQLPMS
Experimental result: -0.086
--
Substance: ANLIIVSVHFPRITTCYNNP
Experimental result: 1.95
--
Substance: INLFICMCEKGYPHDSWVCC
Experimental result: 2.58
--
Substance: TDSLFGVIDHFYENRFW
Experimental result: -0.845
--
Substance: NILRTRSRF
Experimental result: inactive
--
Substance: MIVVHEFLKGYVFSYRLYNL
Experimental result: inactive
--
Substance: VSSWNSSMMIYMVLCIRMSG
Experimental result: inactive
--
Substance: TTQILYTFY
Experimental result: 1.56
--
Substance: QPYIVFISGFVSSLWESVRK
Experimental result: inactive
--
Substance: LCGATCLMFMLHVKCTSGFE
Experimental result: inactive
--
Substance: KTLVRNMDNKPCRFSLTSNF
Experimental result: inactive
--
Substance: RVGVACKCFIQCLYFVFISI
Experimental result: inactive
--
Substance: YPSGVYKFFAASATCWIM
Experimental result: inactive
--
Substance: WVSSFTVAWKGGKQRVITVE
Experimental result: inactive
--
Substance: HLPRKLVRPRRF
Experimental result: -0.415
--
Substance: RSSSPIRVHTINGDVYTDVV
Experimental result: inactive
--
Substance: HYWVLSFLNETALIIEFWH
Experimental result: inactive
--
Substance: NMALLEYDSMSFICRYRNRP
Experimental result: inactive
--
Substance: YTIVLLYERFQLAPTTMWMC
Experimental result: inactive
--
Substance: HNNLLSCYLMAPVFHSMMSE
Experimental result: inactive
--
Substance: INHFLFYANNRYRRHILVGC
Experimental result: inactive
--
Substance: FIPGMQA
Experimental result: inactive
--
Substance: YLWRQYYALFCYCFWNLKGP
Experimental result: inactive
--
Substance: YVKMWHGFYFDRGNGRRDLN
Experimental result: inactive
--
Substance: GGKSVLLTFFQWLP
Experimental result: 0.56
--
Substance: WRDFLYLRHGFQYGIRPMSE
Experimental result: inactive
--
Substance: SHYRIMT
Experimental result: inactive
--
Substance: FWIWIWRIWYDGNEDNLDHF
Experimental result: inactive
--
Substance: ICYTALGCYISSQFSGWGRM
Experimental result: 1.12
--
Substance: LADWQMGVPRGLQVMVCTTL
Experimental result: inactive
--
Substance: DANWDTLIFLSSRMNAWRYK
Experimental result: 1.86
--
Substance: WFISTFDLDRYKFASCSKAW
Experimental result: inactive
--
Substance: PCSYLCSRVFIIC
Experimental result: inactive
--
Substance: MCPHKGIRSISLMIG
Experimental result: inactive
--
Substance: NLTQFYWSCGEVRVTAFYGA
Experimental result: 2.08
--
Substance: MKYAFRFCRPSVRWVYDPRL
Experimental result: inactive
--
Substance: LEKELRLCSKAWLSSQISIV
Experimental result: inactive
--
Substance: FLVLFTL
Experimental result: inactive
--
Substance: SRYLGKGFVSGTCDVGCGLN
Experimental result: inactive
--
Substance: ICIFVFFRYWHVVHVT
Experimental result: inactive
--
Substance: ICDSDFRY
Experimental result: inactive
--
Substance: MWEKFQWCNIINGINSVCVV
Experimental result: 0.962
--
Substance: LVSHLIGFSCRFNPRSERFC
Experimental result: 1.29
--
Substance: VRKPECSVVWVNQCWVQPPY
Experimental result: 2.15
--
Substance: TMWTTGTTPPRMISHT
Experimental result: inactive
--
Substance: LLCSKARSCRVDRMKRGGWV
Experimental result: inactive
--
Substance: GDVIMCFNFRTFLSTITPGS
Experimental result: 1.96
--
Substance: SCTVKSAGGFVSHRFNGSMG
Experimental result: inactive
--
Substance: SCGHFIGCWMGTQVRIYGKQ
Experimental result: inactive
--
Substance: SCVGNLENTIYNMVVRNCCY
Experimental result: inactive
--
Substance: YSWVKEYLSLLSYYCNYRVD
Experimental result: inactive
--
Substance: WIDGINWLSSLVTAIKHSVK
Experimental result: inactive
--
Substance: STWYSRCVLALNLLLSCNRG
Experimental result: 1.38
--
Substance: LFHNCHGFFHTNNVPFVRWP
Experimental result: inactive
--
Substance: SMNFLICMIWSIVS
Experimental result: 1.02
--
Substance: NLASCFVSIVEGSHFVYC
Experimental result: 1.9
--
Substance: CVNTHRY
Experimental result: inactive
--
Substance: SLFCRWLVVYPSMLRVKRVR
Experimental result: inactive
--
Substance: GKKLDMYHIRHSRW
Experimental result: inactive
--
Substance: VKSVLFDGKL
Experimental result: inactive
--
Substance: LGKSKFMAGQFLFCYSSVVL
Experimental result: 1.58
--
Substance: LQLWVSFSSVKLCYCISHSF
Experimental result: inactive
--
Substance: FTKLYELSDMHISYTRS
Experimental result: inactive
--
Substance: AANLDYSRLLEVLE
Experimental result: inactive
--
Substance: VGTFWGFTIPSWYSVVVEVC
Experimental result: inactive
